B1: SFRS1 (parent)
chain: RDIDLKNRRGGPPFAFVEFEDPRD

# Variants of: B1
# PROTOCOL SUMMARY: protein stability index of a GFP-peptide fusion (GPS, HEK-293T) (PSI 1-6); higher = more stable;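 further: lentivirally expressed fusions sorted by FACS into six bins by GFP to DsRed ratio, PSI derived from sequencing read proportions per bin multiplied by bin number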
# ASSAY SETUP: c terminus: a fixed tail appended
RESULT TYPE: protein stability index

# POLYMER SEQUENCE, RESULT TYPE, MEASURED RESULT
rows = [
    ("RDIDLKIRRGGPPFAFVEFEDPRD [N7I]", "protein stability index", 3.63),
    ("RWIDLKNRRGGPPFAFVEFEDPRD [D2W]", "protein stability index", 2.1),
    ("FDIDLKNRRGGPPFAFVEFEDPRD [R1F]", "protein stability index", 3.19),
    ("RKIDLKNRRGGPPFAFVEFEDPRD [D2K]", "protein stability index", 3.12),
    ("RDIDLKNRRGGPLFAFVEFEDPRD [P13L]", "protein stability index", 3.28),
    ("RDIDNKNRRGGPPFAFVEFEDPRD [L5N]", "protein stability index", 3.89),
    ("RDIDLKNRRGGPPFAFVQFEDPRD [E18Q]", "protein stability index", 2.53),
    ("RDIKLKNRRGGPPFAFVEFEDPRD [D4K]", "protein stability index", 3.47),
    ("RDIDLKNRRGGPPFAFVEFEHPRD [D21H]", "protein stability index", 3.34),
    ("RDIDEKNRRGGPPFAFVEFEDPRD [L5E]", "protein stability index", 4.49),
    ("RDIDLKNRRGTPPFAFVEFEDPRD [G11T]", "protein stability index", 3.87),
    ("RDIDAKNRRGGPPFAFVEFEDPRD [L5A]", "protein stability index", 4.09),
    ("RDIDLKNRRGDPPFAFVEFEDPRD [G11D]", "protein stability index", 4.23),
    ("RDCDLKNRRGGPPFAFVEFEDPRD [I3C]", "protein stability index", 3.75),
    ("CDIDLKNRRGGPPFAFVEFEDPRD [R1C]", "protein stability index", 4.2),
    ("RDIDLKNRRGGRPFAFVEFEDPRD [P12R]", "protein stability index", 3.93),
    ("RDIDLKNRRGGPNFAFVEFEDPRD [P13N]", "protein stability index", 4.59),
    ("RDIDLKNRRGGPPFAFVEFEDPMD [R23M]", "protein stability index", 3.79),
    ("RMIDLKNRRGGPPFAFVEFEDPRD [D2M]", "protein stability index", 3.29),
    ("RDIDDKNRRGGPPFAFVEFEDPRD [L5D]", "protein stability index", 4.49),
    ("RDIDLKNRRGGPPFAFVEWEDPRD [F19W]", "protein stability index", 3.39),
    ("RDIDLKNRRGGPPFSFVEFEDPRD [A15S]", "protein stability index", 4.22),
    ("RDIDLKNRRGGPPFAFVEFEDPAD [R23A]", "protein stability index", 3.88),
    ("RDIDLKNREGGPPFAFVEFEDPRD [R9E]", "protein stability index", 4.18),
    ("RDIDLKNRRGGYPFAFVEFEDPRD [P12Y]", "protein stability index", 3.98),
    ("RDIDLKDRRGGPPFAFVEFEDPRD [N7D]", "protein stability index", 4.54),
    ("RDIDLKNRNGGPPFAFVEFEDPRD [R9N]", "protein stability index", 4.5),
    ("RDIDLKNRRGAPPFAFVEFEDPRD [G11A]", "protein stability index", 4.11),
    ("RDIDLKNLRGGPPFAFVEFEDPRD [R8L]", "protein stability index", 3.77),
    ("WDIDLKNRRGGPPFAFVEFEDPRD [R1W]", "protein stability index", 2.69),
    ("RDIDLKNRRGGPPFAFCEFEDPRD [V17C]", "protein stability index", 4.2),
    ("RDIDLKNRRGGPIFAFVEFEDPRD [P13I]", "protein stability index", 3.34),
    ("RDIDLKNRRGGPPFAFVEFEDPRP [D24P]", "protein stability index", 3.42),
    ("RDIDLKNVRGGPPFAFVEFEDPRD [R8V]", "protein stability index", 4.17),
    ("RDIDLKNRRGGPPFAFVGFEDPRD [E18G]", "protein stability index", 2.77),
    ("RDIDLKNRRGGPPYAFVEFEDPRD [F14Y]", "protein stability index", 4.28),
    ("RDPDLKNRRGGPPFAFVEFEDPRD [I3P]", "protein stability index", 3.98),
    ("RDIDLKNRQGGPPFAFVEFEDPRD [R9Q]", "protein stability index", 4.11),
    ("RDIDLKNRRGGKPFAFVEFEDPRD [P12K]", "protein stability index", 4.42),
    ("RDIDLKNRRGGPPFAFVEFEDPRE [D24E]", "protein stability index", 4.76),
    ("RDIDLKNQRGGPPFAFVEFEDPRD [R8Q]", "protein stability index", 4.18),
    ("RYIDLKNRRGGPPFAFVEFEDPRD [D2Y]", "protein stability index", 2.76),
    ("RDIDLKNRRGGPPFAFVEFEDLRD [P22L]", "protein stability index", 3.19),
    ("RDIDLKNRRGGPPFAFVEFVDPRD [E20V]", "protein stability index", 3.02),
    ("RDIGLKNRRGGPPFAFVEFEDPRD [D4G]", "protein stability index", 3.34),
    ("RDIDLKNRRGGPGFAFVEFEDPRD [P13G]", "protein stability index", 3.86),
    ("RDIDKKNRRGGPPFAFVEFEDPRD [L5K]", "protein stability index", 3.81),
    ("RDQDLKNRRGGPPFAFVEFEDPRD [I3Q]", "protein stability index", 4.1),
    ("RDIDLKWRRGGPPFAFVEFEDPRD [N7W]", "protein stability index", 3.28),
    ("RPIDLKNRRGGPPFAFVEFEDPRD [D2P]", "protein stability index", 3.51),
    ("RDIDLKNRRGGPPFAFVEFEFPRD [D21F]", "protein stability index", 2.65),
    ("RDIDLKNRRTGPPFAFVEFEDPRD [G10T]", "protein stability index", 4.3),
    ("RDIDLKNCRGGPPFAFVEFEDPRD [R8C]", "protein stability index", 4.23),
    ("RDIDLKNRRGGPPFAFYEFEDPRD [V17Y]", "protein stability index", 4.42),
    ("RDIDLLNRRGGPPFAFVEFEDPRD [K6L]", "protein stability index", 3.95),
    ("RDIDLMNRRGGPPFAFVEFEDPRD [K6M]", "protein stability index", 4.07),
    ("RDIDLKNRRGGPPFAFVIFEDPRD [E18I]", "protein stability index", 2.24),
    ("SDIDLKNRRGGPPFAFVEFEDPRD [R1S]", "protein stability index", 3.84),
    ("RDIDLKNRRGRPPFAFVEFEDPRD [G11R]", "protein stability index", 3.25),
    ("RDKDLKNRRGGPPFAFVEFEDPRD [I3K]", "protein stability index", 3.77),
    ("RDIDLKNRRGGPPFAFVNFEDPRD [E18N]", "protein stability index", 3.24),
    ("RDIDLKFRRGGPPFAFVEFEDPRD [N7F]", "protein stability index", 2.76),
    ("RDIDLKNRRGGPPFKFVEFEDPRD [A15K]", "protein stability index", 4.56),
    ("RDIDLKNRRGGPPFAFVEFEDPRT [D24T]", "protein stability index", 3.13),
    ("RDIDLKNRRIGPPFAFVEFEDPRD [G10I]", "protein stability index", 3.41),
    ("RDTDLKNRRGGPPFAFVEFEDPRD [I3T]", "protein stability index", 3.73),
    ("RDIELKNRRGGPPFAFVEFEDPRD [D4E]", "protein stability index", 3.61),
    ("RDIDLKNRTGGPPFAFVEFEDPRD [R9T]", "protein stability index", 4.03),
    ("RDIDTKNRRGGPPFAFVEFEDPRD [L5T]", "protein stability index", 3.72),
    ("RDIDLKNRRGGPPFDFVEFEDPRD [A15D]", "protein stability index", 4.44),
    ("RDIPLKNRRGGPPFAFVEFEDPRD [D4P]", "protein stability index", 3.08),
    ("RDIDLKNRRGGPPFAMVEFEDPRD [F16M]", "protein stability index", 4.88),
    ("RDLDLKNRRGGPPFAFVEFEDPRD [I3L]", "protein stability index", 3.81),
    ("RDIDLKNRRGGPPFGFVEFEDPRD [A15G]", "protein stability index", 4.63),
    ("HDIDLKNRRGGPPFAFVEFEDPRD [R1H]", "protein stability index", 3.89),
    ("YDIDLKNRRGGPPFAFVEFEDPRD [R1Y]", "protein stability index", 3.65),
    ("RDIDLKNRRGGPPFAFVEFEDPRM [D24M]", "protein stability index", 2.64),
    ("RDIDLKNRRGGPPFATVEFEDPRD [F16T]", "protein stability index", 4.96),
    ("RDIDLKNRRGGPPFAFVEFWDPRD [E20W]", "protein stability index", 2.72),
    ("RDIDLKNRRGGPQFAFVEFEDPRD [P13Q]", "protein stability index", 4.79),
    ("MDIDLKNRRGGPPFAFVEFEDPRD [R1M]", "protein stability index", 4.04),
    ("RDIDLKNRRGGPPFALVEFEDPRD [F16L]", "protein stability index", 4.81),
    ("DDIDLKNRRGGPPFAFVEFEDPRD [R1D]", "protein stability index", 4.74),
    ("RDIDLKNRMGGPPFAFVEFEDPRD [R9M]", "protein stability index", 4.04),
    ("RDIDLKNRRGGPPFNFVEFEDPRD [A15N]", "protein stability index", 4.73),
    ("RDIDLKNARGGPPFAFVEFEDPRD [R8A]", "protein stability index", 4.06),
    ("RDIDLKNRRGGPPFAFVEFEDPWD [R23W]", "protein stability index", 3.62),
    ("RDIDLKNRLGGPPFAFVEFEDPRD [R9L]", "protein stability index", 4.27),
    ("EDIDLKNRRGGPPFAFVEFEDPRD [R1E]", "protein stability index", 4.36),
    ("RDIDLKSRRGGPPFAFVEFEDPRD [N7S]", "protein stability index", 3.5),
    ("RDIDLKNRRGGPPFAYVEFEDPRD [F16Y]", "protein stability index", 4.26),
]
